Measured ratio to parent of individual entries
B1: H2-Kb / B14 (parent)
chain 1: GEQVEQRPPHLSVREGDSAVIICTYTDPNSYYFFWYKQEPGAGLQLLMKVFSSTEINEGQGFTVLLNKKDKQLSLNLTAAHPGDSAVYFCAVSARGNMGYKLTFGTGTSLLVDP
chain 2: GGIITQTPKFLIGQEGQKLTLKCQQNFNHDTMYWYRQDSGKGLRLIYYSITENDLQKGDLSEGYDASREKKSSFSLTVTSAQKNEMAVFLCASSMGQGASDYTFGSGTRLLVI
chain 3: not shown
chain 4: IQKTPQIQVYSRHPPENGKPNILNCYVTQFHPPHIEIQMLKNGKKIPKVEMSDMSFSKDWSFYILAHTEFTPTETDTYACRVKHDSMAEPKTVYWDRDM
chain 5: SIINFEKL

- Variants of: B1
- Test name: % of reporter cells activated (NFAT-GFP), raw; further: test concentration or dose not given here
- Run parameters: with B14; scale: % of reporter cells activated
I'd appreciate a reply containing only the number, no unit.

// solved cases for ratio to parent follow
**Q:** Form field: reported ratio to parent of chain 5 N4L
**A:** 0.822

**Q:** chain 5 S1L , same question.
**A:** 1.13

**Q:** chain 5 F5M , same question.
**A:** 0.893

**Q:** chain 5 I2V , same question.
**A:** 0.52

**Q:** chain 5 I2H , same question.
**A:** 0.667

**Q:** chain 5 N4A , same question.
**A:** 1.32

Kindly review the next variant as well.
**Q:** Form field: reported ratio to parent of chain 5 I2D
**A:** 1.47
